These measurements were taken from patent US4593104A.

- Test system: Avena fat.
- Assay Details: postemergence application in the greenhouse, % damage
- Assay type: in vivo
- Test Parameters: 1.0 kg/ha
Parameter: % damage (%)
# number only, unit % dropped from output

Task: // query % damage value for entry CCc1cccc(C)c1N(Cn1cncn1)C(=O)CCl [Compound 189]
Result: 60

Task: Fill in the blank: the reported % damage of CCc1cccc(CC)c1N(COC)C(=O)CCl [prior art, reference compound] is ____.
Result: 50

Task: Tell me the measured % damage of CCc1cccc(C)c1N(Cn1ccc(C)n1)C(=O)CCl [Compound 68] , please.
Result: 90

Task: Quick one: % damage of Cc1cccc(C)c1N(Cn1cccn1)C(=O)CCl [Compound 5] ?
Result: 90

Task: Item Cc1cc(C)n(CN(C(=O)CCl)c2c(C)cccc2C)n1 [Compound 38] has what recorded % damage?
Result: 70

---

Below: a set of entries, each annotated with reported % damage.
- System: Euph. gen.
- Assay Details: preemergence treatment in the greenhouse, % damage
- Assay type: in vivo
- Test Parameters: 0.25 kg/ha
Report as: number unit

[
  {
    "Molecule": "Cc1cccc(C)c1N(Cn1cccn1)C(=O)CCl [Compound 5]",
    "Experimental System": "Euph. gen.",
    "Value Observed": "100%"
  },
  {
    "Molecule": "CCc1cccc(C)c1N(Cn1nc(C)cc1C)C(=O)CCl [Compound 40]",
    "Experimental System": "Euph. gen.",
    "Value Observed": "0%"
  },
  {
    "Molecule": "Cc1ccc(C)c(N(Cn2cccn2)C(=O)CCl)c1C [Compound 14]",
    "Experimental System": "Euph. gen.",
    "Value Observed": "80%"
  },
  {
    "Molecule": "Cc1cc(C)n(CN(C(=O)CCl)c2c(C)ccc(C)c2C)n1 [Compound 47]",
    "Experimental System": "Euph. gen.",
    "Value Observed": "10%"
  },
  {
    "Molecule": "CCc1cccc(C)c1N(Cn1cccn1)C(=O)CCl [Compound 7]",
    "Experimental System": "Euph. gen.",
    "Value Observed": "80%"
  }
]

Task: Record lookup: for Euph. gen., what % damage belongs to CCc1cccc(C)c1N(Cn1ccc(C)n1)C(=O)CCl [Compound 68] ?
Result: 10%

---

- Tested on: Setaria spp.
- Assay Details: preemergence treatment in the greenhouse, % damage
- Assay type: in vivo
- Test Parameters: 1.0 kg/ha
Parameter: % damage (%)
Report the value in % with no unit label.

Some entries whose results are on file:
[
  {
    "Compound": "Cc1ccn(CN(C(=O)CCl)c2ccccc2C(C)C)n1 [Compound 72]",
    "% damage (%)": 90
  },
  {
    "Compound": "CCc1cccc(C)c1N(Cn1cc(Cl)cn1)C(=O)CCl",
    "% damage (%)": 85
  },
  {
    "Compound": "Cc1cccc(C)c1N(Cn1cc(Cl)cn1)C(=O)CCl",
    "% damage (%)": 95
  },
  {
    "Compound": "CCc1cccc(C)c1N(Cn1ccc(C)n1)C(=O)CCl [Compound 68]",
    "% damage (%)": 100
  }
]

Task: Need % damage of Cc1ccc(C)c(N(Cn2cccn2)C(=O)CCl)c1C [Compound 14] , thanks.
Result: 100
